Overview of recorded IC50 for various molecules
# SYSTEM: human CYP1A2 (Homo sapiens, UniProt P05177)
# Sequence (P05177 1-516): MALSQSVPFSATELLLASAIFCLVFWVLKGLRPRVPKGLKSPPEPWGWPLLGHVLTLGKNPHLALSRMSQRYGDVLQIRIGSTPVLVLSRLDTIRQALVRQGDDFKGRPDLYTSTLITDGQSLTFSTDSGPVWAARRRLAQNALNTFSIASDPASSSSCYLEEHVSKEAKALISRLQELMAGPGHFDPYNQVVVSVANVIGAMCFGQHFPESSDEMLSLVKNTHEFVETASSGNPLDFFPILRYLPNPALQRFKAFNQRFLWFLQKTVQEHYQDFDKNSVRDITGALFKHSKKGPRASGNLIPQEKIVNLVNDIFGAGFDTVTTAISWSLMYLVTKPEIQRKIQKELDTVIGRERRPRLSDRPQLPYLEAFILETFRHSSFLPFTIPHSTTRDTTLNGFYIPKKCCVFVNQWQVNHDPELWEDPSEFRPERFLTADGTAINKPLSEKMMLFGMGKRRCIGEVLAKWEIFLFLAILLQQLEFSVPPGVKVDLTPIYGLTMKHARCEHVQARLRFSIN

>  <COMPOUND STRUCTURE>
O=C(O)CN1C(=O)/C(=C/c2ccc(-c3ccc(Cl)c(Cl)c3)o2)SC1=S

>  <UNIT ABBREVIATION>
µM

>  <IC50>
2.79

$$$$
>  <COMPOUND STRUCTURE>
COc1ccc(-c2ccc(/C=C3\SC(=S)N(CC(=O)O)C3=O)o2)cc1Cl

>  <UNIT ABBREVIATION>
µM

>  <IC50>
20.9

$$$$
>  <COMPOUND STRUCTURE>
O=C(O)CN1C(=O)/C(=C/c2ccc(-c3cc(C(F)(F)F)ccc3Cl)o2)SC1=S

>  <UNIT ABBREVIATION>
µM

>  <IC50>
20.5

$$$$

* * *

pIC50: −log10 of the molar value.
What follows is a collection of pIC50 values obtained with UniProt:P0DPI0.
Sequence (P0DPI0 whole entry, looked up): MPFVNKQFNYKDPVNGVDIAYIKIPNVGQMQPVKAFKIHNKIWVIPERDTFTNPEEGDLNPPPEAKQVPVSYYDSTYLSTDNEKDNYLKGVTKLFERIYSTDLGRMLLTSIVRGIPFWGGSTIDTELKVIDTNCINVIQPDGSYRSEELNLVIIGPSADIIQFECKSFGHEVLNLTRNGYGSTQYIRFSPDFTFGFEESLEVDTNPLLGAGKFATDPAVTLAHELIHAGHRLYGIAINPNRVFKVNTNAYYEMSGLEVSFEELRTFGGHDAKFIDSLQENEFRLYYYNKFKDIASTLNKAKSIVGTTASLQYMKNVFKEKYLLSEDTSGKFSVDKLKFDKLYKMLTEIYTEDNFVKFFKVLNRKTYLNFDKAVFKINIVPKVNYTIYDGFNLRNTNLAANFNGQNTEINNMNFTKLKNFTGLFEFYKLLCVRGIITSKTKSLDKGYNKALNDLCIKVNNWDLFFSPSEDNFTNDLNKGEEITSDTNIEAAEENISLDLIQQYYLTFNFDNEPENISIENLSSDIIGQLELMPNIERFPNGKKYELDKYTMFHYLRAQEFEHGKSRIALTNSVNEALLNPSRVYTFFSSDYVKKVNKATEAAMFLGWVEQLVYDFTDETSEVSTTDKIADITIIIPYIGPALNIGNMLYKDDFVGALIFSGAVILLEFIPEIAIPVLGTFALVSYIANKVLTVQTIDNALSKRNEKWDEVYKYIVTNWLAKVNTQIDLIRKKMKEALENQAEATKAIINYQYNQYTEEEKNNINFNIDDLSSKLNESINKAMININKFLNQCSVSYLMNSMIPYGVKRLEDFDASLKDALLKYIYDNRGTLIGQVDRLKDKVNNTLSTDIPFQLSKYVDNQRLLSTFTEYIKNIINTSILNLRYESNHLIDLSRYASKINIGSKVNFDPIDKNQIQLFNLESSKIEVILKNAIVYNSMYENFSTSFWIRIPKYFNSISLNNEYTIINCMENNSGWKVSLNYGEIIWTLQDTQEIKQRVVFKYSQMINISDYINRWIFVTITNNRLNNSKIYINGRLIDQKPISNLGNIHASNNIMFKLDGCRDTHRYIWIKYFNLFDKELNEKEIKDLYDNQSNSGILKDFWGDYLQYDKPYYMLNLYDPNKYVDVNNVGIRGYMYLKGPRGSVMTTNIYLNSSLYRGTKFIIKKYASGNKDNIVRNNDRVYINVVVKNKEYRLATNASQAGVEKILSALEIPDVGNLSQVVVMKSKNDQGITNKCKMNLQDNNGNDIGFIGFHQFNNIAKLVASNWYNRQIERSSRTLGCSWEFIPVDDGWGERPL
MEASURED PROPERTY: pIC50

>  <COMPOUND>
CCOc1ccc(-c2nn(-c3ccccc3)cc2/C=C2\SC(=S)N(CC(=O)O)C2=O)c(C)c1

>  <SYSTEM>
UniProt:P0DPI0

>  <MEASURED PROPERTY>
pIC50

>  <VALUE COMPARATOR>
=

>  <RECORDED NUMBER>
3.89

$$$$
>  <COMPOUND>
O=C(O)CN1C(=O)C(=Cc2cc(-c3ccccc3)on2)SC1=S

>  <SYSTEM>
UniProt:P0DPI0

>  <MEASURED PROPERTY>
pIC50

>  <VALUE COMPARATOR>
<

>  <RECORDED NUMBER>
3.70

$$$$
>  <COMPOUND>
O=C1/C(=C/c2ccc(-c3cccc(Cl)c3Cl)o2)SC(=S)N1C1CCS(=O)(=O)C1 (centres unmarked)

>  <SYSTEM>
UniProt:P0DPI0

>  <MEASURED PROPERTY>
pIC50

>  <VALUE COMPARATOR>
<

>  <RECORDED NUMBER>
3.70

$$$$
>  <COMPOUND>
O=C(O)CC(C(=O)O)N1C(=O)/C(=C/c2ccc(-c3ccc(Br)cc3)o2)SC1=S (centres unmarked)

>  <SYSTEM>
UniProt:P0DPI0

>  <MEASURED PROPERTY>
pIC50

>  <VALUE COMPARATOR>
=

>  <RECORDED NUMBER>
4.29

$$$$
>  <COMPOUND>
O=C(O)CN1C(=O)C(=Cc2cc(-c3ccc(F)cc3)on2)SC1=S

>  <SYSTEM>
UniProt:P0DPI0

>  <MEASURED PROPERTY>
pIC50

>  <VALUE COMPARATOR>
<

>  <RECORDED NUMBER>
3.70

$$$$
>  <COMPOUND>
O=C(O)CN1C(=O)C(=Cc2cc(-c3ccc(Cl)cc3)on2)SC1=S

>  <SYSTEM>
UniProt:P0DPI0

>  <MEASURED PROPERTY>
pIC50

>  <VALUE COMPARATOR>
=

>  <RECORDED NUMBER>
4.08

$$$$
>  <COMPOUND>
COc1ccc(-c2cc(C=C3SC(=S)N(CC(=O)O)C3=O)no2)cc1

>  <SYSTEM>
UniProt:P0DPI0

>  <MEASURED PROPERTY>
pIC50

>  <VALUE COMPARATOR>
=

>  <RECORDED NUMBER>
3.71

$$$$
>  <COMPOUND>
O=C(O)CN1C(=O)/C(=C/c2cn(-c3ccccc3)nc2-c2cccs2)SC1=S

>  <SYSTEM>
UniProt:P0DPI0

>  <MEASURED PROPERTY>
pIC50

>  <VALUE COMPARATOR>
=

>  <RECORDED NUMBER>
3.80

$$$$

* * *

Overview of recorded pIC50 for various compounds
# SYSTEM: MMP-2 (Homo sapiens, UniProt P08253)
# Construct: purchased Anaspec, Inc. 71151/71155
# Sequence (P08253 110-660): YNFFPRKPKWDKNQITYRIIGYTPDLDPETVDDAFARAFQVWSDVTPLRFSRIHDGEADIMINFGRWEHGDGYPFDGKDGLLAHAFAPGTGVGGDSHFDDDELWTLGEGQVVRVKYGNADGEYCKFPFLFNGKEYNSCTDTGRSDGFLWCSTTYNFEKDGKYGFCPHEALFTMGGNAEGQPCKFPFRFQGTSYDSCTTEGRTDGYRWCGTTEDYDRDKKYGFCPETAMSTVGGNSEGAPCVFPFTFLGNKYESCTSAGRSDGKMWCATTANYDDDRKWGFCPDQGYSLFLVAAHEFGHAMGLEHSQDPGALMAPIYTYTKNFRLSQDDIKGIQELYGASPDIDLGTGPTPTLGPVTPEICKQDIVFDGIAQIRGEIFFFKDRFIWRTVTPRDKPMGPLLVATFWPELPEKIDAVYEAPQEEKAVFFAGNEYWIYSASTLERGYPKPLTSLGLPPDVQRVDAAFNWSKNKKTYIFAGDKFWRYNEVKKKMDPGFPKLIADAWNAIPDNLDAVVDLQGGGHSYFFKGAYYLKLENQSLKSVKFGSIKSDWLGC
# EXPERIMENT NOTES: MMP-2 assay (Anaspec kit)
# Assay type: biochemical
pIC50: −log10 of the molar value.
MEASURED PROPERTY: pIC50

>  <COMPOUND STRUCTURE>
COc1ccc(-c2nn(-c3ccccc3)cc2/C=C2\SC(=S)N(CCS(=O)(=O)O)C2=O)cc1

>  <MEASURED PROPERTY>
pIC50

>  <VALUE COMPARATOR>
=

>  <RECORDED NUMBER>
4.46

$$$$
>  <COMPOUND STRUCTURE>
O=C(O)CN1C(=O)/C(=C2/C(=O)N(CC(=O)Nc3cccc(Cl)c3)c3ccccc32)SC1=S

>  <MEASURED PROPERTY>
pIC50

>  <VALUE COMPARATOR>
<

>  <RECORDED NUMBER>
4.60

$$$$
>  <COMPOUND STRUCTURE>
O=C(O)CN1C(=O)/C(=C/c2cn(-c3ccc(F)cc3)nc2-c2ccc(F)cc2)SC1=S

>  <MEASURED PROPERTY>
pIC50

>  <VALUE COMPARATOR>
=

>  <RECORDED NUMBER>
4.40

$$$$
>  <COMPOUND STRUCTURE>
O=C(O)CN1C(=O)C(=Cc2cc(-c3ccc(F)cc3)on2)SC1=S

>  <MEASURED PROPERTY>
pIC50

>  <VALUE COMPARATOR>
=

>  <RECORDED NUMBER>
5.00

$$$$
>  <COMPOUND STRUCTURE>
O=C(O)CN1C(=O)C(=Cc2cc(-c3ccc(Cl)cc3)on2)SC1=S

>  <MEASURED PROPERTY>
pIC50

>  <VALUE COMPARATOR>
=

>  <RECORDED NUMBER>
4.72

$$$$
>  <COMPOUND STRUCTURE>
O=C(O)CN1C(=O)C(=Cc2cc(-c3ccccc3)on2)SC1=S

>  <MEASURED PROPERTY>
pIC50

>  <VALUE COMPARATOR>
<

>  <RECORDED NUMBER>
4.00

$$$$
>  <COMPOUND STRUCTURE>
COc1ccc(-c2cc(C=C3SC(=S)N(CC(=O)O)C3=O)no2)cc1

>  <MEASURED PROPERTY>
pIC50

>  <VALUE COMPARATOR>
=

>  <RECORDED NUMBER>
5.18

$$$$
>  <COMPOUND STRUCTURE>
O=C(O)CN1C(=O)/C(=C/c2cn(-c3ccc(F)cc3F)nc2-c2cccnc2)SC1=S

>  <MEASURED PROPERTY>
pIC50

>  <VALUE COMPARATOR>
=

>  <RECORDED NUMBER>
4.86

$$$$
>  <COMPOUND STRUCTURE>
O=C1/C(=C/c2cn(-c3ccccc3)nc2-c2ccc(Cl)cc2)SC(=S)N1CCS(=O)(=O)O

>  <MEASURED PROPERTY>
pIC50

>  <VALUE COMPARATOR>
=

>  <RECORDED NUMBER>
4.57

$$$$
>  <COMPOUND STRUCTURE>
O=C1/C(=C/c2cn(-c3ccccc3)nc2-c2ccc(OCc3ccc(Cl)cc3)cc2)SC(=S)N1CCS(=O)(=O)O

>  <MEASURED PROPERTY>
pIC50

>  <VALUE COMPARATOR>
=

>  <RECORDED NUMBER>
5.00

$$$$
>  <COMPOUND STRUCTURE>
Cc1ccc(-c2cc(C=C3SC(=S)N(CC(=O)O)C3=O)no2)cc1

>  <MEASURED PROPERTY>
pIC50

>  <VALUE COMPARATOR>
>

>  <RECORDED NUMBER>
5.00

$$$$
>  <COMPOUND STRUCTURE>
O=C(O)CN1C(=O)C(=Cc2cc(-c3ccc(Br)cc3)on2)SC1=S

>  <MEASURED PROPERTY>
pIC50

>  <VALUE COMPARATOR>
<

>  <RECORDED NUMBER>
4.00

$$$$
